test: Metabolic stability in mouse liver microsomes assessed as compound remaining after 30 mins by HPLC analysis; type: ADME, Microsome; conditions: read-out: Stability
VALUE_TYPE: remaining at 0.5 h (%)
Answer with a number only, understood to be in %.

# SMILES, remaining at 0.5 h / %
measured = [
    ("COc1ccc(NC(=O)C(=O)c2c[nH]c3cc(F)ccc23)cc1", 74.6),
    ("Cc1ccc(NC(=O)C(=O)c2c[nH]c3cc([N+](=O)[O-])ccc23)cc1", 84.8),
    ("COc1ccc(NC(=O)C(=O)c2c[nH]c3cc(C)ccc23)cc1", 89.1),
    ("COc1ccc(NC(=O)C(=O)c2c[nH]c3cc(C(C)C)ccc23)cc1", 86.2),
]

Please look up its remaining at 0.5 h: `O=C(Nc1ccc(-n2cccn2)cc1)C(=O)c1c[nH]c2cc(Cl)ccc12`
96.7

* * *

experiment: Metabolic stability in mouse liver microsomes assessed as compound remaining after 30 mins by HPLC analysis; format: ADME, Microsome; settings: read-out: Stability
VALUE_TYPE: remaining at 0.5 h
Mention the unit after the number when you answer.

# SMILES, remaining at 0.5 h
records = [
    ("COc1ccc(NC(=O)C(=O)c2c[nH]c3cc([N+](=O)[O-])ccc23)cc1", "90%"),
]

Which remaining at 0.5 h reading was recorded for the compound `Cc1ccc(NC(=O)C(=O)c2c[nH]c3cc(C)ccc23)cc1` ?
90.2%

Entry `O=C(Nc1ccc(-n2cccn2)cc1)C(=O)c1c[nH]c2ccccc12` has what remaining at 0.5 h?
93.6%

Any idea what its remaining at 0.5 h is? The compound is `Cc1ccc(NC(=O)C(=O)c2c[nH]c3cc(C(C)C)ccc23)cc1`
82.6%

* * *

experiment: Cytotoxicity against mouse SMB.s15 cells at 20 uM after 5 days by MTT assay; type: cell-based; details: smb.s15, 120 h
VALUE_TYPE: Activity

Solved entries (count: 5):
# SMILES, Activity
measured = [
    ("Cc1ccc(NC(=O)C(=O)c2c[nH]c3cc(C)ccc23)cc1", "Non-toxic"),
    ("Cc1ccc(NC(=O)C(=O)c2c[nH]c3c(C)cccc23)cc1", "Non-toxic"),
    ("COc1ccc(NC(=O)C(=O)c2c[nH]c3c(C)cccc23)cc1", "Non-toxic"),
    ("Cc1ccc(NC(=O)C(=O)c2c[nH]c3cc([N+](=O)[O-])ccc23)cc1", "Non-toxic"),
    ("O=C(Nc1ccc(-n2cccc2)cc1)C(=O)c1c[nH]c2cc(F)ccc12", "Non-toxic"),
]

Would you mind telling me what Activity value was observed for `COc1ccc(NC(=O)C(=O)c2c[nH]c3ccccc23)cc1` ?
Non-toxic

What value of Activity has been recorded for this entry: `O=C(Nc1ccccc1)C(=O)c1c[nH]c2cc(Cl)ccc12`
Non-toxic

* * *

assay: Metabolic stability in mouse liver microsomes assessed as compound remaining after 30 mins by HPLC analysis; format: ADME, Microsome; details: read-out: Stability
Each entry below carries its recorded remaining at 0.5 h.
Could you give me the number in %? Just the number is fine.

In the examples that follow, each entry is paired with its recorded remaining at 0.5 h.
# SMILES, remaining at 0.5 h [%]
measured = [
    ("Cc1ccc(NC(=O)C(=O)c2c[nH]c3cc(Cl)ccc23)cc1", 85.6),
    ("Cc1ccc(NC(=O)C(=O)c2c[nH]c3ccccc23)cc1", 64.9),
]

Tell me the measured remaining at 0.5 h of `COc1ccc(NC(=O)C(=O)c2c[nH]c3ccccc23)cc1` , please.
67.9

Returns the measured remaining at 0.5 h for the input molecule. Input: `COc1ccc(NC(=O)C(=O)c2c[nH]c3cc(C#N)ccc23)cc1`
87.5

Item under review: `COc1ccc(NC(=O)C(=O)c2c[nH]c3cc(Cl)ccc23)cc1` . Reported remaining at 0.5 h?
87.3

// query remaining at 0.5 h value for entry `Cc1ccc(NC(=O)C(=O)c2c[nH]c3cc(C#N)ccc23)cc1`
88.2

Provenance of the data: ChEMBL document CHEMBL1909628
